Tested on: P388 leukemia ip, CD2F1 mice, survival T/C
Test: NCI In Vivo Anticancer Drug Screen. Data for tumor model P388 Leukemia (intraperitoneal) in CD2F1 (CDF1) mice
Setup conditions: endpoint: median survival time; dose: 200.0 mg/kg/injection; schedule: Q01DX005 (ip); vehicle: Klucel (hydroxypropylcellulose) (HPC); higher = longer survival
Toxic doses and inconclusive results are not listed.
Catalogue of molecules with associated T/C
Outcome measure: T/C

C(/Oc1ccc(-c2ccccc2)cc1)=C(/c1ccccc1)c1ccccc1-c1ccccc1 :: 92 % of control
Cc1nnc(Cl)c(C#N)c1C :: 95 % of control
COc1ccc(/C=C2/N=C(c3ccc(Cl)c(Cl)c3)OC2=O)cc1OC :: 94 % of control
O=C(C[N+]12CN3CN(CN(C3)C1)C2)c1ccc2c(c1)CCCC2 :: 106 % of control
Cc1ccc(N=C(CC(C)C)C2C(=O)c3ccccc3C2=O)cc1 :: 99 % of control
CCCCOc1ccc(C(C)c2cc3c(cc2OC)OCO3)cc1 (stereo not given) :: 98 % of control
OCC1COC(c2ccccc2)=N1 (stereo not given) :: 100 % of control
Nc1nc(C2CCCCC2)c(Br)c(=O)[nH]1 :: 92 % of control
C/C=C(\C)C(=O)N/N=C/c1cccnc1 :: 103 % of control
CCCn1cnc2c(sc3ccccc32)c1=O :: 93 % of control
CN(C)/[N+]([O-])=N/N1C(=O)c2ccccc2C1=O :: 101 % of control
COC1(OC)C(=S)N(C(C)C)C(=S)N1C(C)C :: 100 % of control
CN1CCc2c3c(c4c(c21)CCN4C)CCc1ccccc1-3 :: 96 % of control
CC(C)(C)c1cc(C(O)(C(F)(F)F)C(F)(F)F)c(Cl)c(C(O)(C(F)(F)F)C(F)(F)F)c1 :: 92 % of control
CCOC(=O)CC(O)(c1ccc2c(c1)OCO2)c1cc(OC)c(OC)c(OC)c1 (stereo not given) :: 88 % of control
COc1ccc(/C=C\C(C)=N\NC(=S)Nc2ccc(Br)cc2)cc1 :: 89 % of control
CC1(C)C(=S)C(C)(C)C1=S :: 108 % of control
Cc1cc2cc3c4c(nn5cnnc5c4c2o1)-c1ccccc1CC3 :: 98 % of control
COC(=O)C1C2c3ccccc3C(c3ccccc32)C1(C)C(=O)OC (stereo not given) :: 102 % of control
Brc1cc(-c2ccccc2)ccc1OCC1CO1 (stereo not given) :: 97 % of control
Cc1ccsc1S(N)(=O)=O :: 113 % of control
COc1cc(/C=C/c2ccncc2)ccc1OC(C)=O :: 100 % of control
COC(=O)C(CSSCC(C(=O)NC(Cc1ccccc1)C(=O)NCC(=O)OC(C)(C)C)N1C(=O)CCC1=O)NC(=O)OCc1ccccc1 (stereo not given) :: 96 % of control
Cc1ccsc1C(=O)c1ccccc1 :: 96 % of control
CC(C)C(=O)CC(c1ccccc1)P(=O)(c1ccccc1)c1ccccc1 (stereo not given) :: 103 % of control
CCCn1c(C)nc2[nH]ncc2c1=O :: 92 % of control
CC(=O)Nc1nc(CC(N)C(=O)O)c[se]1 (stereo not given) :: 97 % of control
Nc1ncnc2c1ncn2C1CC(O)C(COC(c2ccccc2)(c2ccccc2)c2ccccc2)O1 (stereo not given) :: 86 % of control
CCN(CC)CC(=O)Nc1ccc2c(c1)C(=O)c1ccc(NC(=O)CN(CC)CC)cc1C2=O :: 90 % of control
CC1(C)C2CCC(C2)C1/C=C1/SC(=S)NC1=O (stereo not given) :: 100 % of control
